experimental_protocol: chemical genetic growth profiling, strain panel (AID 1159580);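 also: tested at 20 µM; growth read once vehicle control cultures reached saturation at 30 °C; 1 = growth at the plate median or of vehicle wells; lower values mean less growth of the strain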
condition_info: S. cerevisiae deletion strains, growth OD, locus YIL147C, strain SLN1, hits give low values
The campaign covered roughly 5,500 compounds. About 2,000 (36%) were called active. Roughly 18% stayed inconclusive and do not appear here. Some of the results follow.
reported_endpoint: normalized growth
API doc: respond with a numeric literal and nothing else, no unit.

# annotated cases, reported normalized growth shown
Query string: # input compound: CC(C)(CCC(C)(C)N1C(=O)c2cccc3cccc(c23)C1=O)N1C(=O)c2cccc3cccc(c23)C1=O ; wanted: its normalized growth
Result string: 0.0853

Query string: # input compound: FC(F)(F)c1ccnc(N2CCCN(C(=S)Nc3ccc(Cl)cc3Cl)CC2)n1 ; wanted: its normalized growth
Result string: 0.972

Query string: # input compound: CCCCN(C)C(=O)c1cc([N+](=O)[O-])cc2c1-c1ccc([N+](=O)[O-])cc1C2=C(C#N)C#N ; wanted: its normalized growth
Result string: 0.982

Note: attention shifts to another entry.
Query string: # input compound: CC1(C)OC(=O)C(=Cc2cccn2-c2ccc(OC(F)(F)F)cc2)C(=O)O1 ; wanted: its normalized growth
Result string: 0.976
